target: BRD4 (Homo sapiens, UniProt O60885); construct: Mean 488 intensity of BRD4 quantitated in nuclear region; endogenous in cells; host or cells: EoL-1 eosinophilic leukemia cells; assay: BRD4 degradation assay in EOL1 cells (immunofluorescence imaging); type: cell-based; settings: EoL-1 eosinophilic leukemia cells, 4 hours treatment, nuclear BRD4 immunofluorescence
Starred links: 1 amine or outer side, 2 acyl side, 3 side chain; linkers in the order of their positions; H or OH if unused. Positions of bridges follow the written chain, without caps; N, C: chain ends. Non-standard residues stand in square brackets, D forms with d. Residues, ends and D or L forms follow the SMILES beside them. *: point of attachment. JQ1acid = Cc1sc2c(c1C)C(c1ccc(Cl)cc1)=N[C@@H](CC(=O)*)c1nnc(C)n1-2; dPhg(4-(4-Me-thiazol-5-yl)) = Cc1ncsc1-c1ccc([C@@H](N)C(=O)O)cc1; Phg(4-(4-Me-thiazol-5-yl)) = Cc1ncsc1-c1ccc([C@H](N)C(=O)O)cc1; dBip = N[C@H](Cc1ccc(-c2ccccc2)cc1)C(=O)O; NHCH2CH2SCH2CO = O=C(CSCCN[*:1])[*:2]; Ile(3-Me) = CCC(C)(C)[C@H](N)C(=O)O; Hyp = O=C(O)[C@@H]1C[C@@H](O)CN1; d(β3hK) = NCCCC[C@@H](N)CC(=O)O; Tle = CC(C)(C)[C@H](N)C(=O)O; X8 = CN(CCOCC(=O)[*:2])[*:1]; dDap = NC[C@@H](N)C(=O)O; AEA = NCCOCC(=O)O
readout_type: DC50

Take a look at these entries with their results.
- molecule: "Cc1sc2c(c1C)C(c1ccc(Cl)cc1)=N[C@@H](CC(=O)NC[C@H]1NC(=O)[C@@H](C)NC(=O)[C@@H](Cc3ccc(-c4ccccc4)cc3)NC(=O)[C@@H]3C[C@@H](O)CN3C(=O)[C@H](C(C)(C)C)NC(=O)COCCN(C)C1=O)c1nnc(C)n1-2 [Compound 63] (cyclo([Hyp][dBip][dA][dDap](JQ1acid)[X8][Tle]))"
  DC50: "< 50 nM"
- molecule: "Cc1ncsc1-c1ccc([C@H]2NC(=O)[C@@H]3C[C@@H](O)CN3C(=O)[C@H](C(C)(C)C)NC(=O)CNC(=O)C[C@@H](CCCCNC(=O)C[C@@H]3N=C(c4ccc(Cl)cc4)c4c(sc(C)c4C)-n4c(C)nnc43)NC(=O)CNC2=O)cc1 [Compound 36] (cyclo(G[Tle][Hyp][dPhg(4-(4-Me-thiazol-5-yl))]G[d(β3hK)](JQ1acid)))"
  DC50: "> 20000 nM"

Input: State DC50 on BRD4 (Homo sapiens, UniProt O60885). Entry: Cc1sc2c(c1C)C(c1ccc(Cl)cc1)=N[C@@H](CC(=O)NC[C@H]1NC(=O)CNC(=O)[C@@H](Cc3ccc(-c4ccccc4)cc3)NC(=O)[C@@H]3C[C@@H](O)CN3C(=O)[C@H](C(C)(C)C)NC(=O)COCCNC1=O)c1nnc(C)n1-2 [Compound 40] (cyclo([AEA][Tle][Hyp][dBip]G[dDap](JQ1acid)))
Output: < 50 nM

Input: Give measured DC50 for Cc1ncsc1-c1ccc([C@H]2NC(=O)[C@@H]3C[C@@H](O)CN3C(=O)[C@H](C(C)(C)C)NC(=O)CSC[C@H](C(N)=O)NC(=O)[C@H](NC(=O)C[C@@H]3N=C(c4ccc(Cl)cc4)c4c(sc(C)c4C)-n4c(C)nnc43)NC(=O)CNC2=O)cc1 (BRD4 (Homo sapiens, UniProt O60885)).
Output: > 20000 nM

Input: Quote BRD4 (Homo sapiens, UniProt O60885) DC50 for entry Cc1ncsc1-c1ccc([C@@H]2NC(=O)[C@@H]3C[C@@H](O)CN3C(=O)[C@H](C(C)(C)C)NC(=O)CSCCNC(=O)[C@@H](CNC(=O)C[C@@H]3N=C(c4ccc(Cl)cc4)c4c(sc(C)c4C)-n4c(C)nnc43)NC(=O)CNC2=O)cc1 [Compound 47] (cyclo(G[dDap](JQ1acid)[NHCH2CH2SCH2CO][Tle][Hyp][Phg(4-(4-Me-thiazol-5-yl))])) .
Output: > 20000 nM

Input: Param request: DC50 | system BRD4 (Homo sapiens, UniProt O60885) | item CCC(C)(C)[C@@H]1NC(=O)COCCNC(=O)[C@@H](CNC(=O)C[C@@H]2N=C(c3ccc(Cl)cc3)c3c(sc(C)c3C)-n3c(C)nnc32)NC(=O)[C@@H](C)NC(=O)[C@@H](Cc2ccc(-c3ccccc3)cc2)NC(=O)[C@@H]2C[C@@H](O)CN2C1=O [Compound 57] (cyclo([AEA][Ile(3-Me)][Hyp][dBip][dA][dDap](JQ1acid)))
Output: < 50 nM

Input: Please respond with reported DC50 (system BRD4 (Homo sapiens, UniProt O60885)) for Cc1sc2c(c1C)C(c1ccc(Cl)cc1)=N[C@@H](CC(=O)NC[C@H]1NC(=O)CNC(=O)[C@@H](Cc3ccc(-c4ccccc4)cc3)NC(=O)[C@@H]3C[C@@H](O)CN3C(=O)[C@H](C(C)(C)C)NC(=O)CSC[C@H](C(N)=O)NC1=O)c1nnc(C)n1-2 [Compound 18] ({CH2CO}-[Tle][Hyp][dBip]G[dDap](JQ1acid)[dC]-NH2; thioether N-6) .
Output: < 1000 nM

Origin of measurements: patent US12187816B2
